Data origin, for the record: PubChem BioAssay

Test system: TRPC4 beta (transient receptor potential cation channel C4), mouse
procedureSummary: activators of mouse TRPC4 channel, confirmation, cell-based, Fluo4 calcium, HEK293 TRPC4beta/mu-opioid, duplicates, 10 µM (AID 2426)
condition: Fluo4 calcium fluorescence, at 10 µM
Active and inactive are the calls of the source.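 How the source made its calls: active means fluorescence ratio normalized to control raised more than 50% in primary screen plus both repeat runs; inactive means the rest.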
Log the outcome using a class from active, inactive

# example entries with known answers
- compound: "CCCCC(=O)NNC(=S)NC(=O)c1ccc(C)cc1"
  assignedLabel: "active"
- compound: "Cc1ccc(OCC(=O)NNC(=S)NC(=O)C(C)(C)C)c(Br)c1"
  assignedLabel: "active"
- compound: "COC(=O)C1=NN(C(=O)c2cccc(Br)c2)C(O)(c2ccc(Cl)cc2)C1 (stereo not given)"
  assignedLabel: "active"
- compound: "CCCN(CCC)CCCNC(=O)C1CCN(S(=O)(=O)c2cccc3nsnc23)CC1"
  assignedLabel: "active"
- compound: "c1ccc(Nc2nc(Nc3ccccc3)nc(N3CCNCC3)n2)cc1"
  assignedLabel: "active"
- compound: "COc1ccc(-c2cc(C(=O)NCC(c3ccccc3)N(C)C)c3ccccc3n2)cc1OC (stereo not given)"
  assignedLabel: "active"
- compound: "CCCN(CCC)CCCNc1ccc2nnc(-c3ccc(F)cc3)n2n1"
  assignedLabel: "active"
- compound: "CCCCC(c1nnnn1CC1CCCO1)N1CCN(c2nc3ccccc3s2)CC1 (stereo not given)"
  assignedLabel: "active"
- compound: "OC1(c2ccccc2)CN(c2ccccc2)C2=[N+]1CCS2 (stereo not given)"
  assignedLabel: "inactive"

For the next question, use this compound.
Dear all, I need the recorded test outcome for Cc1cccc(C(=O)NC(=S)NNC(=O)c2cccs2)c1 , thank you. active

----------
systemName: Potassium voltage-gated channel subfamily KQT member 1 (Homo sapiens)
procedureSummary: KCNQ1 potassium channel potentiators, confirmation, FluxOR thallium flux, CHO cells, duplicates (AID 493007);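 on outcome: cells depolarized by a potassium plus thallium sulfate stimulus after compound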
condition: KCNQ1 cell line, FluxOR thallium flux fluorescence, at 10 µM, % of reference activator effect, buffer zero
Calls of active or inactive are those of the source.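 The calls were made as follows: active = potentiation averaged over duplicate wells exceeding buffer-only control mean by more than 3 SD; inactive = the rest.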
Log the outcome using a class from T (active), F (inactive)

- compound: "CCCN(CCC)CCNC(=O)Cn1cnc2sc(C)c(S(=O)(=O)N3CCOCC3)c2c1=O"
  systemName: "Potassium voltage-gated channel subfamily KQT member 1 (Homo sapiens)"
  assignedLabel: "F"
- compound: "O=C(NNc1c2ccccc2nc2ccccc12)c1ccccc1Cl"
  systemName: "Potassium voltage-gated channel subfamily KQT member 1 (Homo sapiens)"
  assignedLabel: "F"

Dear all, I need the recorded test outcome for Cc1cc(Br)ccc1OCC(=O)NNC(=O)C(=O)Nc1ccccc1 , thank you. T

Dear all, I need the recorded test outcome for CCCn1c(=S)[nH]c2ccccc2c1=O , thank you. T

Dear all, I need the recorded test outcome for CC(C)CSC1=NSC2=NC(=O)/C(=C\c3ccccc3)C(=N)N12 , thank you. T

Dear all, I need the recorded test outcome for CCC1(c2ccccc2)NC(=S)N(c2ccc(C)c(C)c2)N1 (stereo not drawn) , thank you. T

Dear all, I need the recorded test outcome for O=S(=O)(NC(=S)NC1CCCCC1)c1ccc(Cl)cc1 , thank you. T

Dear all, I need the recorded test outcome for C=CCSc1nc2c(c(=O)[nH]1)C(C(C)C)C(C#N)=C(N)O2 (stereo not drawn) , thank you. F

Dear all, I need the recorded test outcome for Cc1cccc(CNC(=O)C2CCCN(c3nn4c(=O)cc(C)nc4s3)C2)c1 (stereo not drawn) , thank you. F

Dear all, I need the recorded test outcome for C=C(C)CNC(=O)c1ccc(OC2CCN(C(=O)COC)CC2)cc1 , thank you. F

Dear all, I need the recorded test outcome for Cc1cc(C=NCCO)c(C)n1-c1cc(Cl)ccc1Cl , thank you. F

Dear all, I need the recorded test outcome for O=C(CCn1c(=O)sc2ccccc21)NCc1ccco1 , thank you. F

Dear all, I need the recorded test outcome for CN1C(=O)NC(c2ccc(O)cc2)C(C(=O)c2cccs2)C1(O)C(F)(F)F (stereo not drawn) , thank you. F

Dear all, I need the recorded test outcome for CN1C(=O)C2(Oc3ccccc3C3CC(c4ccccc4)=NN32)c2ccccc21 (stereo not drawn) , thank you. F

Dear all, I need the recorded test outcome for COc1ccc2nc(/N=C/c3c(C)[nH]n(-c4ccc(C)cc4)c3=O)sc2c1 , thank you. T

Dear all, I need the recorded test outcome for O=C(NC(=S)Nc1ccc(Cl)cn1)c1cccs1 , thank you. F

Dear all, I need the recorded test outcome for COc1cccc(OC)c1C(=O)Nc1cccc(-c2ccc3nncn3n2)c1 , thank you. F

Dear all, I need the recorded test outcome for CC(C)(C)C1(O)CC(C(F)(F)F)=NN1C(=O)Cc1ccc([N+](=O)[O-])cc1 (stereo not drawn) , thank you. F

Dear all, I need the recorded test outcome for CCCn1c(=O)c(C(=O)NNC(=O)c2ccc(Cl)cc2Cl)c(O)c2ccccc21 , thank you. T

Dear all, I need the recorded test outcome for CC1CCCN(c2ccc(C(=O)NCc3ccccc3)cn2)C1 (stereo not drawn) , thank you. T

Dear all, I need the recorded test outcome for CCOC(=O)Cc1csc(NC(=S)NC(=O)C(C)(C)C)n1 , thank you. F

----------
System: TRPC4 (transient receptor potential cation channel C4 beta), mouse
procedureSummary: positive allosteric modulators of mouse TRPC4, confirmation, cell-based, second round, Fluo-4, HEK293 TRPC4beta/mu-opioid, 1 µM (AID 2554)
condition: DAMGO EC20, Fluo-4 calcium flux, at 1 µM
Active and inactive are the calls of the source.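 The calls were made as follows: active = primary screen hit whose fluorescence ratio, in both repeats, exceeds the weak agonist control mean by 3 SD; inactive = the rest.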
Log the outcome using a class from yes (1) for active, no (0) for inactive

- molecule: "CN(C)C(CNC(=S)Nc1ccc(F)cc1)c1cccnc1 (configuration not stated)"
  systemName: "TRPC4 (transient receptor potential cation channel C4 beta), mouse"
  assignedLabel: "no (0)"
- molecule: "CCOC(=O)C1(CCOc2ccccc2)CCN(Cc2ccc(NC(C)=O)cc2)CC1"
  systemName: "TRPC4 (transient receptor potential cation channel C4 beta), mouse"
  assignedLabel: "no (0)"
- molecule: "Fc1ccc(-c2nnc(CN3CCN(c4ncc(C(F)(F)F)cc4Cl)CC3)o2)cc1"
  systemName: "TRPC4 (transient receptor potential cation channel C4 beta), mouse"
  assignedLabel: "no (0)"
- molecule: "COc1ccc2nc(NS(=O)(=O)c3ccc(NC(C)=O)cc3)sc2c1"
  systemName: "TRPC4 (transient receptor potential cation channel C4 beta), mouse"
  assignedLabel: "no (0)"
- molecule: "Cc1cccc(NC(=S)NCC(c2cccnc2)N(C)C)c1C (configuration not stated)"
  systemName: "TRPC4 (transient receptor potential cation channel C4 beta), mouse"
  assignedLabel: "no (0)"
- molecule: "Cc1ccccc1C(=O)NNC(=S)NC(=O)c1ccccc1"
  systemName: "TRPC4 (transient receptor potential cation channel C4 beta), mouse"
  assignedLabel: "no (0)"
- molecule: "COc1ccc(N/C(C)=C2/C(=O)C(=O)N(CCO)C2c2ccc(Br)cc2)cc1 (configuration not stated)"
  systemName: "TRPC4 (transient receptor potential cation channel C4 beta), mouse"
  assignedLabel: "yes (1)"
- molecule: "CCN(c1ccccc1)S(=O)(=O)c1ccc(C(=O)N(CCCN(C)C)c2nc3cc4c(cc3s2)OCO4)cc1"
  systemName: "TRPC4 (transient receptor potential cation channel C4 beta), mouse"
  assignedLabel: "no (0)"
- molecule: "CN(C)CCCN(C(=O)c1ccc(S(=O)(=O)N(C)Cc2ccccc2)cc1)c1nc2cc3c(cc2s1)OCO3"
  systemName: "TRPC4 (transient receptor potential cation channel C4 beta), mouse"
  assignedLabel: "no (0)"
- molecule: "O=C(c1c(F)cccc1F)N1CCN(c2ncc(Br)cn2)CC1"
  systemName: "TRPC4 (transient receptor potential cation channel C4 beta), mouse"
  assignedLabel: "no (0)"

Dear all, I need the recorded test outcome for COc1ccc(-c2cc(C(=O)NCC(c3ccccc3)N(C)C)c3ccccc3n2)cc1OC (configuration not stated) , thank you. no (0)

Dear all, I need the recorded test outcome for CN(C)C(CNC(=O)C1CC(=O)N(Cc2ccccc2)C1)c1ccccc1 (configuration not stated) , thank you. no (0)

Dear all, I need the recorded test outcome for COC(=O)c1ccc(N2CCN(C)CC2)c(NC(=O)COc2ccccc2)c1 , thank you. no (0)

Dear all, I need the recorded test outcome for CN(C)C(CNC(=S)Nc1ccccc1)c1cccnc1 (configuration not stated) , thank you. no (0)

Dear all, I need the recorded test outcome for COC(=O)C1=C(C)N(Cc2ccccc2)C(=NCCc2ccccn2)N[C@H]1c1cccc(F)c1 , thank you. no (0)

Dear all, I need the recorded test outcome for CCOC(=O)C1(CCc2ccccc2)CCN(Cc2c(O)cccc2OC)CC1 , thank you. no (0)

Dear all, I need the recorded test outcome for O=C(NC(=S)NNC(=O)c1ccco1)c1ccc(Br)cc1 , thank you. no (0)

----------
systemName: Short transient receptor potential channel 4 (Mus musculus)
procedureSummary: inhibitors of mouse TRPC4 channel, confirmation, cell-based, second round, Fluo4, HEK293 TRPC4beta/mu-opioid, 1 µM (AID 2637)
condition: Fluo4 calcium flux, DAMGO, at 1 µM
Activity calls are given as the source filed them.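 How the source made its calls: active means calcium signal ratio cut to more than 3 SD under the fully stimulated control mean yet still positive, in both repeats and the primary screen; inactive means the rest.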
Log the outcome using a class from True for active, False for inactive

- compound: "COc1ccc(-c2nc(CN3CCC(C(=O)NC4CCCC4)CC3)c(C)o2)cc1OC"
  assignedLabel: "False"
- compound: "COc1ccc(N/C(C)=C2/C(=O)C(=O)N(CCO)C2c2ccc(Br)cc2)cc1 (configuration not stated)"
  assignedLabel: "False"
- compound: "CC1CCCCN1S(=O)(=O)c1ccc(C(=O)N(CCCN(C)C)c2nc3ccc(Br)cc3s2)cc1 (configuration not stated)"
  assignedLabel: "False"
- compound: "COc1ccc(C(=O)NC(=S)NNC(=O)CCc2ccccc2)cc1"
  assignedLabel: "False"
- compound: "CCCCN(CC)CCNC(=O)c1cc2cc3ccc(Cl)cc3nc2o1"
  assignedLabel: "False"

Dear all, I need the recorded test outcome for Cc1sc2nc(CSc3ccccc3)nc(NCCN(C)C)c2c1C , thank you. False

Dear all, I need the recorded test outcome for CCN1CCN(c2ccc(S(=O)(=O)N3CCCCC3)cc2NC(=O)COc2ccccc2)CC1 , thank you. False
